Measured pEC50 M4 accompanies every entry in the list below.
# assayedSystem: human muscarinic M4 receptor (Homo sapiens, UniProt P08173)
# Construct: expressed in transfected cells
# Sequence (P08173 whole entry): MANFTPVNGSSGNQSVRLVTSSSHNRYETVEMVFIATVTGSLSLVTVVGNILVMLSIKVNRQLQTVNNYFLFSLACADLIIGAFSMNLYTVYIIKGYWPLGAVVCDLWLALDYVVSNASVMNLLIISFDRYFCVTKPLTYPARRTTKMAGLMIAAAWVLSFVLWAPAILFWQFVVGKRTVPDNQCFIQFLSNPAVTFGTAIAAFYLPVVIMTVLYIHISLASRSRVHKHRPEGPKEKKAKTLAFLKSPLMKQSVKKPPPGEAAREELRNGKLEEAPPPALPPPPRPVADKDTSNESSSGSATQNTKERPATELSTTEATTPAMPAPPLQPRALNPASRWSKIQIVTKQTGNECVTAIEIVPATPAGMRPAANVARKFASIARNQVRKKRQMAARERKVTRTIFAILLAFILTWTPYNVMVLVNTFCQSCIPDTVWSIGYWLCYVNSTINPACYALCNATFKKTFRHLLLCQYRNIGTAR
# protocolText: Alphascreen Surefire phospho-ERK1/2 functional assay, M4
# Type: cell-based
# particulars: CHO cells stably expressing human M4; agonist 5 min, 37° C.
Form rule: numeric answer, no unit written next to it.

These recorded examples may help you get a feel for the data.
* Cc1noc(N2C3COCC2CC(N2C[C@@H]4[C@H](C2)[C@H]4C(=O)N(C)C(C)C)C3)n1 (single isomer, unassigned; isomer 2) [12-22 Isomer 2] | 6.23
* CCN(CC)C(=O)[C@H]1[C@@H]2CN(C3CC4CCC(C3)N4c3nc(C)no3)C[C@@H]21 (single isomer, unassigned; isomer 2) [12-25 Isomer 2] | 6.82
* O=C1CC2(CCN(C3CC4CCC(C3)N4c3nc(C(F)(F)F)no3)CC2)CN1 (single isomer, unassigned; isomer 2) [12-3 Isomer 2] | 6.70
* CC(=O)N(CC1(C)CCC1)C1CCN(C2CC3CCC(C2)N3c2nc(C)no2)CC1 (single isomer, unassigned; isomer 1) [12-18 Isomer 1] | 6.68

Task: // fetch pEC50 M4 given entry CCN(C)C(=O)[C@H]1[C@@H]2CN(C3CC4CCC(C3)N4c3nc(C)no3)C[C@@H]21 (single isomer, unassigned; isomer 2) [12-24 Isomer 2]
Result: 6.02

Task: For CC(=O)N(CC1(C)CCC1)C1CCN(C2CC3CCC(C2)N3c2nc(C)no2)CC1 (single isomer, unassigned; isomer 2) [12-18 Isomer 2] , write its pEC50 M4.
Result: 7.83

Task: Give the measured pEC50 M4 for Cc1noc(N2C3CCC2CC(N2C[C@@H]4[C@H](C2)[C@H]4C(=O)NC2(C)CCC2)C3)n1 (single isomer, unassigned; isomer 2) [12-13 Isomer 2]
Result: 6.09

Task: For the molecule CCN(CC)C(=O)[C@H]1[C@@H]2CN(C3CC4COCC(C3)N4c3nc(C(F)(F)F)no3)C[C@@H]21 (single isomer, unassigned; isomer 2) [12-23 Isomer 2] , give its reported pEC50 M4.
Result: 6.92

---

Let's look at some molecules and their measured EC50.
# assayedSystem: human muscarinic M4 receptor (Homo sapiens, UniProt P08173)
# Construct: expressed in transfected cells
# protocolText: Alphascreen Surefire phospho-ERK1/2 functional assay, M4
# Assay type: cell-based
# particulars: CHO cells stably expressing human M4; agonist 5 min, 37° C.; read-out: pEC50 M4 (converted)
Form entry: value (nM) — number only.

Known EC50 results, listed for orientation:
- Cc1noc(N2CCCC(N3CCC(N4CCCC4c4cnn(C)c4)CC3)CC2)n1 (single isomer, unassigned) [10-10 Isomer 2a]: 1450
- CCC1NC(=O)OC12CCN(C1CCCN(c3nc(C)no3)CC1)CC2 (single isomer, unassigned) [10-4 Isomer 2]: 23.4
- Cc1noc(N2C3CCCC2CC(N2CCC(C(=O)NC4(C)CCC4)CC2)C3)n1 (single isomer, unassigned) [8-4 Isomer 1]: 646
- Cc1noc(N2C3COCC2CC(N2CCC(n4cccn4)CC2)C3)n1 (single isomer, unassigned) [9-1 Isomer 1]: 105
- Cc1noc(N2CC3CC(C2)C3N2CCC(n3cccn3)CC2)n1 (single isomer, unassigned) [5-1 Isomer 1]: 1260

Task: # assay system human muscarinic M4 receptor (Homo sapiens, UniProt P08173): give EC50 of CNC(=O)N1CCC[C@H]1C1CCN(C2CCCN(c3nc(C)no3)CC2)CC1 (single isomer, unassigned) [10-12 Isomer 1]
Result: 309

Task: Give EC50 for this entry on human muscarinic M4 receptor (Homo sapiens, UniProt P08173): CCC1NC(=O)OC12CCN(C1CCCN(c3nc(C)no3)CC1)CC2 (single isomer, unassigned) [10-4 Isomer 3]
Result: 2190

Task: Report EC50 under test system human muscarinic M4 receptor (Homo sapiens, UniProt P08173) for `Cc1noc(N2CC3(CC(N4CCC(n5cccn5)CC4)C3)C2)n1` .
Result: 513

Task: Param request: EC50 | system human muscarinic M4 receptor (Homo sapiens, UniProt P08173) | item Cc1noc(N2CC3CCC2CC3N2CCC3(CC2)CNC(=O)C3)n1 (single isomer, unassigned) [12-1 Isomer 2]
Result: 117

Task: Enter measured EC50, system human muscarinic M4 receptor (Homo sapiens, UniProt P08173), for the molecule shown: CNC(=O)N1CCC[C@H]1C1CCN(C2CCCN(c3nc(C)no3)CC2)CC1 (single isomer, unassigned) [10-12 Isomer 2]
Result: 55

Task: Please look at Cc1noc(N2CCCC(N3CCC(n4cccn4)CC3)CC2)n1 (single isomer, unassigned) [10-1 Isomer 2] and tell me its recorded EC50 on human muscarinic M4 receptor (Homo sapiens, UniProt P08173).
Result: 525

Task: Name the value of EC50 reported for Cc1noc(N2CCCC(N3CCC(N4CC(F)(F)C[C@@H]4CO)CC3)CC2)n1 (single isomer, unassigned) [10-8 Isomer 2] when tested on human muscarinic M4 receptor (Homo sapiens, UniProt P08173).
Result: 295

Task: Given CCC1NC(=O)OC12CCN(C1CCCN(c3nc(C)no3)CC1)CC2 (single isomer, unassigned) [10-4 Isomer 1] , report its EC50 on human muscarinic M4 receptor (Homo sapiens, UniProt P08173).
Result: 100

Reference source: patent US10858352B2
